Biological target: vanilloid receptor 1 (VR1/TRPV1 receptor) (Homo sapiens, UniProt Q8NER1)
Construct: expressed in transfected cells; host or cells: CHO K1 cells (ECACC), stably transfected
Sequence (Q8NER1 whole entry): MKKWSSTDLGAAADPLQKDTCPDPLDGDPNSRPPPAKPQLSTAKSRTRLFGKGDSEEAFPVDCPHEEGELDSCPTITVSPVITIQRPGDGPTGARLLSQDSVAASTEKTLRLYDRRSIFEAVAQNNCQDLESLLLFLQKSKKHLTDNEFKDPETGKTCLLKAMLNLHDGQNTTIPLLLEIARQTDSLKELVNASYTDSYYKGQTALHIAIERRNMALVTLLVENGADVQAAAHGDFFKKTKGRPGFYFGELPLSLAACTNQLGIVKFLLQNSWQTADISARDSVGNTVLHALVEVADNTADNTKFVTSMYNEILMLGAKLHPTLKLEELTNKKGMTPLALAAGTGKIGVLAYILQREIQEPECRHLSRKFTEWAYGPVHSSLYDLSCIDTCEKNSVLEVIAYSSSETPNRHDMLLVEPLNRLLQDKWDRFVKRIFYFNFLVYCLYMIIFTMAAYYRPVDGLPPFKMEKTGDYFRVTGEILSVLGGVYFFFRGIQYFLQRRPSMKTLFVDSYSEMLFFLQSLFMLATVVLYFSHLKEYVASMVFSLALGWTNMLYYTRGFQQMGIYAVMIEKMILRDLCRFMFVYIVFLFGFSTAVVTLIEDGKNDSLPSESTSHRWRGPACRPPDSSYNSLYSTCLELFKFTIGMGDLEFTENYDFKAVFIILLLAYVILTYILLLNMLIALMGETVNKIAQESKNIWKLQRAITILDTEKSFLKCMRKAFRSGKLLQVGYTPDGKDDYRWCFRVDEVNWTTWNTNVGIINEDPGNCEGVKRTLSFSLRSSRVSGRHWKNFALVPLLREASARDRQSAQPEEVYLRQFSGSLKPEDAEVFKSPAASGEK
Assay: FLIPR assay, CHO K1 cells transfixed with the human VR1 gene, displacement of capsaicin (Pharmacological Method II)
Assay type: cell-based
Conditions: capsaicin (Cap) 100 nM, Ki from IC50 by Cheng-Prusoff
endpoint-name: Ki (nM)

These recorded examples may help you get a feel for the data.
- COc1ccc(N2CCN(C(=O)NCc3cc(C(F)(F)F)nn3-c3cccc(Cl)c3)CC2)cc1: 63
- CC(C)(C)c1cc(CNC(=O)N2CCN(c3ncccc3Cl)CC2)n(-c2cccc(Cl)c2)n1: 10

P: O=C(NCc1cc(C(F)(F)F)nn1-c1cccc(Cl)c1)N1CCN(c2ncccc2C(F)(F)F)CC1
Q: Cc1c(C(F)(F)F)nn(-c2cccc(Cl)c2)c1CNC(=O)N1CCN(c2ncccc2Cl)CC1
Exam item: Problem: Given the entries P and Q , determine which has the lower reported Ki. Your choice should be expressed through its label.
Marked response: P
(P: 4 nM, Q: 16 nM)

A: COc1cccc(N2CCN(C(=O)NCc3cc(C(F)(F)F)nn3-c3cccc(Cl)c3)CC2)c1
B: O=C(NCc1cc(C(F)(F)F)nn1-c1cccc(Cl)c1)N1CCN(c2ccc(Cl)cc2)CC1
Exam item: Which value of Ki is smaller, the one for A or the one for B ? Please reply using the label of the selected record.
Marked response: A

----------
Molecular target: vanilloid receptor 1 (VR1/TRPV1 receptor) (Homo sapiens)
Construct: expressed in transfected cells; host or cells: CHO K1 cells (ECACC), stably transfected
Assay: FLIPR assay, CHO K1 cells transfixed with the human VR1 gene, displacement of capsaicin (Pharmacological Method II)
Type: cell-based
Conditions: capsaicin (Cap) 100 nM, Ki from IC50 by Cheng-Prusoff
From the text: […] In this connection the Ca^2+ inflow is quantified in the FLIPR assay with the aid of a Ca^2+-sensitive dye (Type Fluo-4, Molecular Probes Europe BV, Leiden, Netherlands) in a fluorescent imaging plate reader (FLIPR, Molecular Devices, Sunnyvale, USA), as described hereinafter. The agonistic and antagonistic action of the substances to be investigated on the vanilloid receptor (VR1) can also be determined with the following assay. […]
endpoint-name: Ki (nM)

Consider the following illustrative entries.
• O=C(NCc1cc(C(F)(F)F)nn1-c1cccc(Cl)c1)N1CCN(c2ccc(F)cc2)CC1 = 48
• COc1ccccc1N1CCN(C(=O)NCc2cc(C(F)(F)F)nn2-c2cccc(Cl)c2)CC1 = 61
• O=C(NCc1cc(C(F)(F)F)nn1-c1cccc(Cl)c1)N1CCN(c2ncccc2Cl)CC1 = 14
• CC(C)(C)c1cc(CNC(=O)N2CCN(c3ccc(Cl)cc3)CC2)n(-c2cccc(Cl)c2)n1 = 42
• O=C(NCc1cc(C(F)(F)F)nn1-c1cccc(Cl)c1)N1CCN(c2ccccc2Cl)CC1 = 7
• O=C(NCc1cc(C(F)(F)F)nn1-c1cccc(Cl)c1)N1CCC(c2ccccc2)CC1 = 27

1: O=C(NCc1cc(C2CC2)nn1-c1cccc(Cl)c1)N1CCN(c2ncccc2Cl)CC1
2: CC(C)(C)c1cc(CNC(=O)N2CCN(c3ccccc3F)CC2)n(-c2cccc(Cl)c2)n1
Exam item: Smaller Ki value, 1 vs 2 ? // return label of chosen record
Marked response: 2
